# TEST PROTOCOL: Maximum solubility of alkanediols in water, visual assessment (Example 6)
# CONDITION PARAMETERS: assessed visually at ambient temperature after 24 h storage at 5° C.; clear mixture = dissolved
MEASURED PARAMETER: Maximum solubility in water (% by weight)

The compound listed as CCCCCCC(O)CO (stereo not drawn) [Hydrolite ® 8, Caprylyl Glycol] has a reported Maximum solubility in water of 0.5

(a) CCCCCCCC(O)CO (stereo not drawn)
(b) CCCCC(O)C(C)O (stereo not drawn)
Consider a and b . Which of these has its Maximum solubility in water at a higher number? Give the label of your selection.
b
(b: 3.6 % by weight, a: 0.1 % by weight)

* * *

# TEST PROTOCOL: Maximum solubility of alkanediols in water, visual assessment (Example 6)
# CONDITION PARAMETERS: assessed visually at ambient temperature after 24 h storage at 5° C.; clear mixture = dissolved
MEASURED PARAMETER: Maximum solubility in water (% by weight)

(a) CCCCCCC(O)C(C)O (stereo not drawn)
(b) CCCCCC(O)C(C)O (stereo not drawn)
(c) CCCCCC(O)CO (stereo not drawn)
Descending sort on Maximum solubility in water required. Reply with the labels, ordered as the question asks.
c, b, a
(c: 2.5 % by weight, b: 1.5 % by weight, a: 0.3 % by weight)
